- system: MERTK (UniProt Q12866)
- Sequence (Q12866 whole entry, looked up): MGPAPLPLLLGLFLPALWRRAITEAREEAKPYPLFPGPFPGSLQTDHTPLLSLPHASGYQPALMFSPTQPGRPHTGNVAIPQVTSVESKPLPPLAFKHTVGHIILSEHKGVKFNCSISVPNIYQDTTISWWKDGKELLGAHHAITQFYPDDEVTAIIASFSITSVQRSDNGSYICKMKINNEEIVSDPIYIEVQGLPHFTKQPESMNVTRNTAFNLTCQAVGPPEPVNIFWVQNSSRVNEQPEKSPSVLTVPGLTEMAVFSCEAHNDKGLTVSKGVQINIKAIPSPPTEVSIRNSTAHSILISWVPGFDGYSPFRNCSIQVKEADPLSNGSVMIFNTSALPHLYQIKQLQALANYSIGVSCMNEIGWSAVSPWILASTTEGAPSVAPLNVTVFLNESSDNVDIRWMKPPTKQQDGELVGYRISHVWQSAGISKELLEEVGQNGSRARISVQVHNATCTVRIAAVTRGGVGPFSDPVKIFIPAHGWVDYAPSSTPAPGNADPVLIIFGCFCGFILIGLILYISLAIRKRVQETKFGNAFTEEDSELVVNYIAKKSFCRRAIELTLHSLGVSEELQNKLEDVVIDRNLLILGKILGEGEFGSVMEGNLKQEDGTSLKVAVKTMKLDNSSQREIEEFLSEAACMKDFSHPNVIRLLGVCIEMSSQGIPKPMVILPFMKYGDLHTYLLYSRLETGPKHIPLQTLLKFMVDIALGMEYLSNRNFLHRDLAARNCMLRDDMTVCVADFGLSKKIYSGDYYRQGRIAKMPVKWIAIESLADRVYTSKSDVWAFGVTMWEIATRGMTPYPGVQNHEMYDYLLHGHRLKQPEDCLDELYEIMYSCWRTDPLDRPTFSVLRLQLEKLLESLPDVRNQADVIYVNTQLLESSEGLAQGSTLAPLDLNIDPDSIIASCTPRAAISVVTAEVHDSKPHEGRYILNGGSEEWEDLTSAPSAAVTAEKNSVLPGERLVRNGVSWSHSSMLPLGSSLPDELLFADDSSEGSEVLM
- method_summary: phosphorylation enrichment, bacterial display (enrichment ratio); higher = better substrate or ligand; peptides without Tyr show the background;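 also: 11-residue human phosphosite peptides and single-mutation variants displayed on the E. coli surface, counted by deep sequencing, each peptide's frequency after selection divided by its frequency in the unselected input library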;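 also: frequency after pTyr selection over input frequency; kinase dosed for 20-30% of maximal phosphorylation in three min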
condition met means recorded phosphorylation enrichment is 0.7 or above; condition not met means it is below 0.7.

Look over these answered cases.
In plain terms: is recorded phosphorylation enrichment at least 0.7 for SKLTIYDGRPS [MTM1_Y277_A279G] ?
condition not met

Same lookup for QFQLKYSETPF [SIX6OS1_Y129_YF] , please.
condition met

Same lookup for RRSKMYLKTRS [LPL_Y329_S325R] , please.
condition not met

Next:
In plain terms: is recorded phosphorylation enrichment at least 0.7 for QEGPEYWDGET [HLA-A_Y83_Q86G] ?
condition not met

Same lookup for QEGPEYWDLET [HLA-A_Y83_Q86L] , please.
condition met

Same lookup for FAAAGYGSLEA [EPHA10_Y959] , please.
condition not met

Same lookup for GADDSYYTVRS [ZAP70_Y492_A495V] , please.
condition not met

Same lookup for TGDVQYRSSVR [FREM2_Y2158] , please.
condition not met

Same lookup for RSSKTYLKTRS [LPL_Y329_M328T] , please.
condition met
